Target: Cathepsin S (Homo sapiens) (UniProt P25774)
Sequence (P25774 115-331 limits assumed): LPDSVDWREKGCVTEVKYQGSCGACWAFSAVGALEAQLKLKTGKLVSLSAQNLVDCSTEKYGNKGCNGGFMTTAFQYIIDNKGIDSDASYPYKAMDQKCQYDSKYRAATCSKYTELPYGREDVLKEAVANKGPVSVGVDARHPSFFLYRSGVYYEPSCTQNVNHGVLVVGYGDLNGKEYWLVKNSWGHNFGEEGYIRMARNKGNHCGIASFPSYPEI
Experiment: Inhibition of Cathepsin S at 1 umol/L for 2 mins by spectrofluorometry
For each entry below, report its inhibition value.
Hi! Could you send only the number? It should be in %, unit omitted.

-- ask Consider the compound "CCCC[Te](Br)(Br)c1ccccc1COC" and give its measured inhibition.
-- reply 96

-- ask Continue with "CCCC[Te](Cl)(Cl)c1ccccc1[C@@H](C)OC"
-- reply 85

-- ask Thanks! And "CCCC[Te](Cl)(Cl)c1ccccc1COC" ?
-- reply 85

-- ask Would you mind doing "CCCC[Te](Cl)(Cl)c1ccccc1[C@H](C)OC" as well?
-- reply 85
